Test: Absorbance and fluorescence properties
Type: physicochemical
Conditions: extinction coefficient
What Absorbance ∈ was measured for each of the following?

Bench note: what Absorbance ∈ did Cc1ccc2nc(-c3ccc4nc(-c5ccc(NC(=O)c6ccc(F)cc6)cc5)sc4c3)sc2c1S(=O)(=O)O.N [Compound 7] show?
24,950 M^−1cm^−1

Do the same for Cc1ccc2nc(-c3ccc4nc(-c5ccc(NC(=O)c6ccc(C(C)(C)C)cc6)cc5)sc4c3)sc2c1S(=O)(=O)O [Compound 13] please
37,150 M^−1cm^−1

Do the same for Cc1ccc2nc(-c3ccc4nc(-c5ccc(NC(=O)c6ccc(N)cc6)cc5)sc4c3)sc2c1S(=O)(=O)O [Compound 6] please
36,600 M^−1cm^−1

Do the same for Cc1ccc2nc(-c3ccc4nc(-c5ccc(N)cc5)sc4c3)sc2c1S(=O)(=O)O [Compound P2a] please
38,550 M^−1cm^−1

Do the same for Cc1ccc2nc(-c3ccc4nc(-c5ccc(NC(=O)c6cccc(Cl)c6)cc5)sc4c3)sc2c1S(=O)(=O)O [Compound 17] please
59,500 M^−1cm^−1

Do the same for Cc1ccc2nc(-c3ccc4nc(-c5ccc(NC(=O)c6ccc7nc(-c8ccc(N)cc8)sc7c6)cc5)sc4c3)sc2c1S(=O)(=O)O [Compound 35] please
42,000 M^−1cm^−1

Do the same for Cc1ccc2nc(-c3ccc4nc(-c5ccc(NC(=O)c6ccc(Br)cc6)cc5)sc4c3)sc2c1S(=O)(=O)O [Compound 15] please
51,600 M^−1cm^−1

Do the same for Cc1ccc2nc(-c3ccc4nc(-c5ccc(NC(=O)c6ccc(Cl)c(Cl)c6)cc5)sc4c3)sc2c1S(=O)(=O)O [Compound 18] please
44,000 M^−1cm^−1

Do the same for Cc1ccc2nc(-c3ccc4nc(-c5ccc(NC(=O)c6cc(C(F)(F)F)cc(C(F)(F)F)c6)cc5)sc4c3)sc2c1S(=O)(=O)O [Compound 24] please
45,650 M^−1cm^−1

====

Target: HCV NS3 helicase NS3h_1b(con1) (Hepatitis C virus genotype 1b, UniProt Q9WMX2)
Construct: truncated C-terminally His-tagged NS3 proteins lacking the N-terminal protease, called NS3h; His-tag (C); made in house
Sequence (Q9WMX2 1192-1657): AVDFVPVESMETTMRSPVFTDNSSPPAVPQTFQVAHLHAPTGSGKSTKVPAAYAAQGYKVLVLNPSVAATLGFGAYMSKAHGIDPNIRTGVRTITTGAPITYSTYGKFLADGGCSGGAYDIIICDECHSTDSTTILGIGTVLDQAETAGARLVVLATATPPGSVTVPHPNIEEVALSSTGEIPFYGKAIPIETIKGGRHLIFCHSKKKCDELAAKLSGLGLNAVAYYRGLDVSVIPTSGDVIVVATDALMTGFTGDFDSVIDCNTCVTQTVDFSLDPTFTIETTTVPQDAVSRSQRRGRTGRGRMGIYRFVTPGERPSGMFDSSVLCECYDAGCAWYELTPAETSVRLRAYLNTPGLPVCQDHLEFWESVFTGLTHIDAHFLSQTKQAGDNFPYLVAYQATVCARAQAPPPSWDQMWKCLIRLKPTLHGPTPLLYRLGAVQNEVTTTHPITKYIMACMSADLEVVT
Experiment: MBHA screen of NCI mechanistic set library at 20 μM (percent inhibition, compound interference)
Format: biochemical
Details: compounds at 20 μM, MBHA with a DNA substrate; calculated from Equation 1
Experimental: All molecular beacon-based helicase assays (MBHAs) were performed according to known methods (Belon & Frick (2008) supra; Belon & Frick (2009) supra). […] Fluorescence was read before ATP (F0) addition and 30 minutes after ATP was added to 1 mM (F30) using a Tecan Infinite M200 fluorescence microplate reader with excitation and emission wavelengths set to 643 and 670 nm, respectively. […]
What Inh. (%) (Inhibition) was measured for each of the following?
Kindly answer with a numeric value in %, unit omitted.

Bench note: what Inh. (%) (Inhibition) did CN(C)CC1CCC/C(=C\c2ccc(OC(=O)/C=C/c3ccccc3)cc2)C1=O.Cl (stereo not drawn) show?
11.6

Do the same for CCC1=C(C[C@H]2NCCc3cc(OC)c(OC)cc32)C[C@H]2c3cc(OC)c(OC)cc3CCN2C1 please
12.0

Do the same for N#C/C(=C\c1ccc2ccccc2c1)C(=O)c1ccccc1 please
−21.0

Do the same for c1ccc2c(c1)nnn1c3cnccc3nc21 please
−3.1

Do the same for CCOC(=O)CNC(=O)NC12CC3CC(CC(C3)C1)C2 please
−4.1

Do the same for COC1CC(OC2CCC3(C=O)C4CCC5(C)C(C6=CC(=O)OC6)CCC5(O)C4CCC3(O)C2)OC(C)C1OC1OC(COC2OC(CO)C(O)C(O)C2O)C(O)C(O)C1O (stereo not drawn) please
−19.7

Do the same for Cl.Nc1nc(N)c2ncn(-c3ccccc3)c2n1 please
−5.0

Do the same for O=C1C=C(Nc2cccnc2)c2ccccc2C1=O please
−3.8

Do the same for Cl.NC1(CCNC(=O)c2ccccc2)CCN(C(=O)c2ccccc2)CC1 please
−35.7

====

Molecular target: HCV NS3 helicase NS3h_1b(con1) (Hepatitis C virus genotype 1b, UniProt Q9WMX2)
Construct: truncated C-terminally His-tagged NS3 proteins lacking the N-terminal protease, called NS3h; His-tag (C); made in house
Assay: MBHA screen of NCI mechanistic set library at 20 μM (percent inhibition, compound interference)
Assay type: biochemical
Conditions: compounds at 20 μM, MBHA with DNA substrate; calculated from Equation 1
propertyMeasured: Inh. (%) (Inhibition)
Express your answer as a number followed by its unit.

Bench note: what Inh. (%) (Inhibition) did CNC(=O)ON(C(C)=O)C(=O)NC show?
5.5%

Do the same for Clc1cc2nc[nH]c2cc1Cl please
1.6%

Do the same for c1ccc2c(NCCCCCCCCNc3c4ccccc4nc4ccccc34)c3ccccc3nc2c1 please
41.8%

====

Target: HCV NS3 helicase NS3h_1b(con1) (Hepatitis C virus genotype 1b, UniProt Q9WMX2)
Construct: truncated C-terminally His-tagged NS3 proteins lacking the N-terminal protease, called NS3h; His-tag (C); made in house
Experiment: MBHA screen of NCI mechanistic set library at 20 μM (percent inhibition, compound interference)
Type: biochemical
Settings: compounds at 20 μM, MBHA with DNA substrate; assay interference calculated with Equation 2
What Int.* (Ratio) (Interference) was measured for each of the following?
Kindly answer with a numeric value in Ratio, unit omitted.

Bench note: what Int.* (Ratio) (Interference) did [Mo] [Compound 622124] show?
1.11

Do the same for COC(=O)C(=O)C(C(=O)Nc1cccc(C)c1C)C1Sc2ccccc2NC1=O (stereo not drawn) please
0.93

Do the same for COc1cc2cc(c1Cl)N(C)C(=O)C[C@H](OC(=O)[C@H](C)N(C)C(C)=O)[C@]1(C)O[C@H]1[C@H](C)[C@@H]1C[C@@](O)(NC(=O)O1)[C@H](OC)/C=C/C=C(\C)C2 please
0.95

Do the same for CC[C@]1(O)C[C@H]2CN(CCc3c([nH]c4ccccc34)[C@@](C(=O)OC)(c3cc4c(cc3OC)N(C=O)[C@H]3[C@@](O)(C(=O)OC)[C@H](OC(C)=O)[C@]5(CC)C=CCN6CC[C@]43[C@@H]65)C2)C1 please
0.96

Do the same for Nc1ncnc2c1ncn2[C@@H]1O[C@H](CO)C[C@H]1O please
1.11

Do the same for COc1ccc2oc(-c3ccncc3)cc(=O)c2c1 please
1.11

Do the same for Cc1[nH]c(=O)nc(N/N=C/c2ccc(Cl)cc2)c1C(=O)Nc1ccc(Cl)cc1 please
0.86

Do the same for CN(C)CCOC1(Cc2ccc(F)cc2)CCC(C(C)(C)C)CC1.O=C(O)/C=C/C(=O)O (stereo not drawn) please
1.11

Do the same for Cc1c2ccc3ccccc3c2c[n+]2ccccc12.[Cl-] please
1.08

Do the same for Br.CN(C)c1nc(=NCc2ccco2)ss1 please
1.01

Do the same for CCN(CC)CCN1C(=O)c2c(c3c4cccc(Cl)c4n(C4OC(CO)C(OC)C(O)C4O)c3c3[nH]c4c(Cl)cccc4c23)C1=O (stereo not drawn) please
0.70

Do the same for COc1ccc2cc(CN3CCC(C4CCN(Cc5ccc6cc(OC)ccc6c5)CC4)CC3)ccc2c1.Cl please
0.93

Do the same for CC12CCC(O)CC1CCC1C2CCC2(C)C(C3=CC(=O)OC3)CCC12O (stereo not drawn) please
1.00

Do the same for COc1cccc2c1C(=O)c1c(O)c3c(c(O)c1C2=O)C[C@@](O)(C(C)=O)C[C@@H]3OC1CC(N(C)C)C(O)C(C)O1.Cl (stereo partly drawn) please
0.64

Do the same for CC(=O)O.Cc1c2cc[n+](CCN3CCCCC3)cc2c(C)c2c1[nH]c1ccc(O)cc12 please
0.29

Do the same for C1CN1c1nc(N2CC2)nc(N2CC2)n1 please
0.98

Do the same for Clc1ccc(C(c2ccccc2Cl)C(Cl)Cl)cc1 (stereo not drawn) please
0.93

Do the same for O=C1Nc2c(Cl)cc(Cl)cc2C1=O please
0.92

Do the same for N#CC(=S)Nc1ccc(F)cc1 please
0.95

Do the same for CN1CCN(CCSC2Cc3cc(Cl)ccc3Sc3ccccc32)CC1 (stereo not drawn) please
1.05

Do the same for C=C(C)[C@@H]1CC[C@]2(C)CC[C@]3(C)[C@H](CC[C@@H]4[C@@]5(C)CC[C@H](O)C(C)(C)[C@@H]5CC[C@]43C)[C@@H]12 please
1.18

Do the same for CN(C)c1ccc2c(SCC(=O)OCC(=O)[C@@]3(O)CC[C@H]4[C@@H]5CCC6=CC(=O)C=C[C@]6(C)[C@H]5C(=O)C[C@@]43C)c3ccc(N(C)C)cc3nc2c1 please
0.29

Do the same for Cc1ccc(CC2(OCCN(C)C)CCC(C(C)(C)C)CC2)cc1.O=C(O)/C=C/C(=O)O (stereo not drawn) please
1.04

Do the same for N#CC(C#N)=Cc1ccc(Oc2ccccc2)cc1 please
0.96

Do the same for CN(N=O)C(=O)N[C@@H]1[C@@H](O)[C@H](O)[C@@H](CO)O[C@@H]1O please
1.10

Do the same for Cc1ccc(S(=O)(=O)N2CCSCCSCCSCCSCC2)cc1 please
0.86

Do the same for C=C1CC(COc2cc(=O)oc3ccccc23)(c2ccccc2)OC1=O (stereo not drawn) please
0.83
